- STUDY_SYSTEM: Cytochrome P450 2C19 (Homo sapiens, UniProt P33261)
- Sequence (P33261 whole entry): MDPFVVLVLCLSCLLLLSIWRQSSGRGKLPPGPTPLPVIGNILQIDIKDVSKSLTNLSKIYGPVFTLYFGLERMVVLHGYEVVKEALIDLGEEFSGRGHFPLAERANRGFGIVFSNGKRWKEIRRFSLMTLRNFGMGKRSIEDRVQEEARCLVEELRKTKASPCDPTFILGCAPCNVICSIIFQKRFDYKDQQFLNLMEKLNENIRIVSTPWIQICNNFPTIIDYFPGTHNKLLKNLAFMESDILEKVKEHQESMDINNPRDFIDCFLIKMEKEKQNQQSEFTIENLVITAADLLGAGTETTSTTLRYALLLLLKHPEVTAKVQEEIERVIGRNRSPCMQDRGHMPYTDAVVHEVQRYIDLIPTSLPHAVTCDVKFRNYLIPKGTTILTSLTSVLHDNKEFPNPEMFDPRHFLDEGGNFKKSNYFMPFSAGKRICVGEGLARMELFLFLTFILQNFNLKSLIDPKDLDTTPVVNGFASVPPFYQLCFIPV
- PROTOCOL: Cytochrome panel assay with activity outcomes. Panel member name: p450-cyp2c19 Compounds with AC50 equal or less than 10 uM are considered active
- Type: functional
- CONDITIONS: read-out: AC50
RESULT_TYPE: AC50

For orientation, consider the following solved cases.
> print(dat)
                                   compound          value.measured
1  COC(=O)c1c(NC(=O)C(C)(C)C)sc2c1C(C(=O)OC)CC2 (stereo unspecified)  14.1 µM (inconclusive)
2  O=c1c2ccccc2c(-c2ccc(Br)cc2)nn1Cc1ccccc1  5.62 µM (inconclusive)
3  CCCCC(=O)NNC(=S)NC(=O)c1cccc([N+](=O)[O-])c1  15.8 µM (inconclusive)
4                 Cc1nc(-c2cccnc2)sc1C(N)=O  5.01 µM (inconclusive)
5  CCN1CCN(C(c2ccccn2)c2c(NC(=O)c3ccccc3)sc(C)c2C)CC1 (stereo unspecified)  17.8 µM (inconclusive)

Item COc1cc2c(cc1O)[C@H]1Cc3ccc(OC)c(O)c3CN1CC2 was tested on Cytochrome P450 2C19 (Homo sapiens, UniProt P33261); the reported AC50 is 7.94 µM (inconclusive)

====

Overview of reported IC50 across a group of compounds:
- STUDY_SYSTEM: UniProt Q9BQF6
- Sequence (Q9BQF6 whole entry): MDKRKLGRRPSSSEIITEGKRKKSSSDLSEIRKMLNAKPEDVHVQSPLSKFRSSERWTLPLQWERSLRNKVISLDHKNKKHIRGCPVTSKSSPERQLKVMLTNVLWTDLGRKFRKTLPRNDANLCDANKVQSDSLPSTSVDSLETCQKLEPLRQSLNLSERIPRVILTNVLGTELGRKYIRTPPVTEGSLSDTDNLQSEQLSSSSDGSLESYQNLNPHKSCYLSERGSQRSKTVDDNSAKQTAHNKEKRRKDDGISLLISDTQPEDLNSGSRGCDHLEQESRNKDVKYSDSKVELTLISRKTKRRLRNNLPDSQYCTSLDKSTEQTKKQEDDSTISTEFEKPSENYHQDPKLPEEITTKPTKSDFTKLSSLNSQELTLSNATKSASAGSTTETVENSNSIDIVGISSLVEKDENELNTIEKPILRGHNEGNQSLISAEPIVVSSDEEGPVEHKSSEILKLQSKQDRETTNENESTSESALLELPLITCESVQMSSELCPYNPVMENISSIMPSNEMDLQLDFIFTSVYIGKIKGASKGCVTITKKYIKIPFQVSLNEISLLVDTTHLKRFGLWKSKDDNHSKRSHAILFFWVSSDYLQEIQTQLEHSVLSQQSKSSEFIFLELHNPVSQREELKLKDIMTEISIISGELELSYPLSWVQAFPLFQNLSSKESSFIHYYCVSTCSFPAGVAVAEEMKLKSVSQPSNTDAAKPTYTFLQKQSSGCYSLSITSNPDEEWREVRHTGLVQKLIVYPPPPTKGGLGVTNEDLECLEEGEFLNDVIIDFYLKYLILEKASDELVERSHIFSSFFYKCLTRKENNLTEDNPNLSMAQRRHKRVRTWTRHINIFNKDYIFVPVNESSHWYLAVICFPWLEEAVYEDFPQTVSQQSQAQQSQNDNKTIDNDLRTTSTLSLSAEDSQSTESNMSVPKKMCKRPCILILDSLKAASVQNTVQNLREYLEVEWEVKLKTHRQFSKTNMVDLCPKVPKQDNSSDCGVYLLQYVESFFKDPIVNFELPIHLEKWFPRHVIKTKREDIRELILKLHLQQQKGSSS
- Type: functional
Calls of active or inactive are those of the source.

For orientation, consider the following solved cases.
> print(dat)
                                   compound    study.system  result.type    value.measured
1  O=C(O)COc1ccccc1/C=N/NC(=O)CSc1nnc(SCc2ccc(Cl)cc2)s1  UniProt Q9BQF6         IC50  15.8 µM (active)
2  Cc1ccc2c(c1)c(=O)c1c3n2CCN(C(=O)CCl)C3CC1 (stereo not given)  UniProt Q9BQF6         IC50  23.9 µM (active)

Item O=C(O)c1ccc(N/N=C/c2ccc(OC(=O)c3ccccc3Cl)cc2)cc1 was tested on UniProt Q9BQF6; the reported IC50 is 3.74 µM (active)

Item NC(=O)C1CCN(C2=C(Cl)C(=O)c3ccccc3C2=O)CC1 was tested on UniProt Q9BQF6; the reported IC50 is 17.8 µM (active)

Item Cc1ccc(C)c(-c2nc3cc(N)ccc3o2)c1 was tested on UniProt Q9BQF6; the reported IC50 is 9.65 µM (active)

====

- STUDY_SYSTEM: Corticotropin-releasing factor receptor 2/Corticotropin-releasing factor-binding protein (Homo sapiens, UniProt P24387+Q13324)
- Sequence (Q13324 whole entry): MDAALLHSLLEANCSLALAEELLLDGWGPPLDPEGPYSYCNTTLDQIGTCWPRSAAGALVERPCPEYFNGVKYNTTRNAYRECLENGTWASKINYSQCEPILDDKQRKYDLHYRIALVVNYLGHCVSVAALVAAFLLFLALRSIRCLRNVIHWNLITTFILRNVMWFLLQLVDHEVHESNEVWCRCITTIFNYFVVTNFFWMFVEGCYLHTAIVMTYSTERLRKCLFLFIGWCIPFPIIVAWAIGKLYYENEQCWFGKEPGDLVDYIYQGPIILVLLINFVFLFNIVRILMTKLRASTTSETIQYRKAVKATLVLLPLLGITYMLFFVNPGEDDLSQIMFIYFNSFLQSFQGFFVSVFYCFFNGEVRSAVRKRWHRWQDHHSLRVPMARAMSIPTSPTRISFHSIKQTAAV
- Sequence (P24387 whole entry): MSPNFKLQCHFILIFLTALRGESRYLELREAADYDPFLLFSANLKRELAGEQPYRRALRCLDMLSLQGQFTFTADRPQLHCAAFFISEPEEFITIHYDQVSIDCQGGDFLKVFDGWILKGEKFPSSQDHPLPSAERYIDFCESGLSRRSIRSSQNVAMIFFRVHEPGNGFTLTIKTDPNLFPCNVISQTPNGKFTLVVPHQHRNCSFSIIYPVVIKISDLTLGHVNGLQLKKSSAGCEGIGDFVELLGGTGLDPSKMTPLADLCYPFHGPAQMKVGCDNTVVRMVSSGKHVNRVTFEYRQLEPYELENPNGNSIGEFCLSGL
- PROTOCOL: Dose Response confirmation of uHTS hits for small molecule antagonists of the CRF-binding protein and CRF-R2 receptor complex.
- Format: functional
- CONDITIONS: read-out: IC50_Mean
Active and inactive are the calls of the source.
Give your call using only these classes: active, inactive

> print(dat)
                                   compound  answer.label
1             COc1ccc(C)cc1NCc1cccc(OC)c1OC        active
2  O=C(Nc1nnc(S(=O)(=O)N2CCCCC2)s1)c1ccc(Cl)cc1      inactive
3  Cc1nn(C)cc1CN(C)C(=O)c1ccc(OC2CCN(Cc3ccccn3)CC2)cc1      inactive
4  COc1ccc(/C=C2\SC(=S)N(C(Cc3ccccc3)C(=O)O)C2=O)cc1 (configuration not stated)        active
5  COc1ccc(CCNC(=O)C(=O)NCC2OCCN2S(=O)(=O)c2ccc(OC)cc2)cc1 (configuration not stated)      inactive

Ask | Record lookup: outcome of this test for O=C(NCC1CCCO1)c1onc(CSc2cccc3ccccc23)c1C(=O)O (configuration not stated) ?
Reply | inactive

Ask | Record lookup: outcome of this test for CC(C)CN(CC(C)C)C(=O)CCCC(=O)N(CC(C)C)CC(C)C ?
Reply | inactive

Ask | Record lookup: outcome of this test for Cc1c(Cl)c([N+](=O)[O-])nn1CCCC(=O)Nc1cc(Oc2ccccc2)cc([N+](=O)[O-])c1 ?
Reply | inactive

Ask | Record lookup: outcome of this test for CCOC(=O)c1cc2c(=O)c3cc(C)ccc3oc2nc1C ?
Reply | inactive

Ask | Record lookup: outcome of this test for CC(=O)NCc1ccc(C(=O)O)cc1 ?
Reply | inactive

Ask | Record lookup: outcome of this test for Cc1onc(-c2ccccc2)c1C(=O)N/N=C/c1cc(Br)c(Br)o1 ?
Reply | inactive

Ask | Record lookup: outcome of this test for CC1C(=O)N(Cc2cn(CCC3OCCCO3)nn2)CCS(=O)(=O)N1Cc1ccc(-c2ccc(Cl)cc2)cc1 (configuration not stated) ?
Reply | inactive

Ask | Record lookup: outcome of this test for CCC(CC)NC(=O)CC(c1ccccc1)c1ccccc1 ?
Reply | inactive

Ask | Record lookup: outcome of this test for Cc1ccnc(NC(=O)c2cccc(S(=O)(=O)N3CCCC3)c2)c1 ?
Reply | inactive

Ask | Record lookup: outcome of this test for CN(C)C(=O)C1CC(=O)OC12CCCCC2 (configuration not stated) ?
Reply | inactive

Ask | Record lookup: outcome of this test for COc1ccc(C(c2nnnn2Cc2ccccc2)N2CCN(c3ccccc3)CC2)cc1 (configuration not stated) ?
Reply | inactive

Ask | Record lookup: outcome of this test for Cc1ccc(Cl)cc1N(CC(=O)N1CCOCC1)S(C)(=O)=O ?
Reply | inactive

====

Overview of reported AC50 across a group of compounds:
Target sequence: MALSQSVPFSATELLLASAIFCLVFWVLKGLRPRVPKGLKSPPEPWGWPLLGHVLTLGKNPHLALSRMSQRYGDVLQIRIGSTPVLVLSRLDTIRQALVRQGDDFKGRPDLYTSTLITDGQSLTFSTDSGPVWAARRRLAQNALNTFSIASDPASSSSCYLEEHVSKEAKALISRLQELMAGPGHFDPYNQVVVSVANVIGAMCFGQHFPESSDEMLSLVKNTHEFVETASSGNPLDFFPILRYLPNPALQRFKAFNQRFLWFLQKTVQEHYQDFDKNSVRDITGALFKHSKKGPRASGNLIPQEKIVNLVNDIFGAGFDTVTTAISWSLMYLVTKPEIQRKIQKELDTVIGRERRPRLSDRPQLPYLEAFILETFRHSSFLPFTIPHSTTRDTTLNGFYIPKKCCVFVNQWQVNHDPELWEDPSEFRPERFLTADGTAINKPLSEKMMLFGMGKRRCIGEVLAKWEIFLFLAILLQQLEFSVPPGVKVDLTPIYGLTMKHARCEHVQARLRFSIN

For orientation, consider the following solved cases.
> print(dat)
                                   compound          value.measured
1  O=C(COc1cccc(NC(=O)c2cccc([N+](=O)[O-])c2)c1)c1ccc(Br)cc1  5.62 µM (inconclusive)
2      C(/C=C/c1ccco1)=N/N1CCN(c2ccccc2)CC1  8.91 µM (inconclusive)
3  CCCCn1nc2cc(C(=O)NC3CCCc4ccccc43)ccc2c1OCC (stereo unspecified)  39.8 µM (inconclusive)

Record COC(=O)c1c(NC(=O)C(C)(C)C)sc2c1C(C(=O)OC)CC2 (stereo unspecified) . Reported AC50: 0.794 µM (inconclusive)

Record CCC/C=C(\CCC)C(NC(=O)Cc1ccccc1)c1ccc(C(=O)OC)cc1 (stereo unspecified) . Reported AC50: 15.8 µM (inconclusive)

Record CCc1nnc(NC(=O)CSc2nc3cc4c(cc3cc2C)OCCO4)s1 . Reported AC50: 1.58 µM (inconclusive)

Record O=C(CSc1cccc2cccnc12)OCC(=O)c1ccccc1 . Reported AC50: 20 µM (inconclusive)

Record CC(=O)Nc1ccc(Nc2ncc([N+](=O)[O-])c(Nc3ccc(NC(C)=O)cc3)n2)cc1 . Reported AC50: 22.4 µM (inconclusive)

Record CCOc1ccccc1NC(=O)C1Cc2ccccc2CN1S(C)(=O)=O (stereo unspecified) . Reported AC50: 39.8 µM (inconclusive)

Record O=S(=O)(O)c1ccc2c(/N=N\c3c(O)ccc4ccccc34)cccc2c1 . Reported AC50: 3.16 µM (inconclusive)

Record CNCC[C@@H](Oc1ccccc1C)c1ccccc1 [ATOMOXETINE] . Reported AC50: 15.8 µM (inconclusive)
